ASSAY INFO: Cell-based cytotoxicity assay
Set-up: species or system Baby Hamster
EXPERIMENTAL SETUP: hamster, BHK-21 cells
MEASURED PROPERTY: CC50 at 24 h
Please provide the amount together with its unit, number first.

stdin: Report measured CC50 at 24 h; entry is COc1cc(C=CC(=O)CC(=O)C=Cc2ccc(O)c(OC)c2)ccc1O [CC1, reference compound]
stdout: 49 µM

----------
EC50 values for the molecules below.
System: DENV2 replicon
ASSAY INFO: microbe, parasite or virus in culture
Type: cell-based
EXPERIMENTAL SETUP: Dengue virus, DENV2, BHK-21, 24 h, read-out: EC50 (replicon)
Record the value in µM, omitting the unit from your answer.

1. O=C(/C=C/c1ccc(O)cc1)CC(=O)/C=C/c1ccc(O)cc1 | 26.4

Let's switch to this molecule now.
stdin: Quote DENV2 replicon EC50 for entry COc1cc(C=CC(=O)CC(=O)C=Cc2ccc(O)c(OC)c2)ccc1O [CC1, reference compound] .
stdout: 13.9
